Overview of recorded Kd for various binders
Molecular target: T1, P. falciparum aldolase (P. falciparum, UniProt Q7KQL9 1-369)
T1 construct: also called fructose 1,6-bisphosphate aldolase; parasite aldolase; source: prepared as described previously [42]
T1 sequence (looked up): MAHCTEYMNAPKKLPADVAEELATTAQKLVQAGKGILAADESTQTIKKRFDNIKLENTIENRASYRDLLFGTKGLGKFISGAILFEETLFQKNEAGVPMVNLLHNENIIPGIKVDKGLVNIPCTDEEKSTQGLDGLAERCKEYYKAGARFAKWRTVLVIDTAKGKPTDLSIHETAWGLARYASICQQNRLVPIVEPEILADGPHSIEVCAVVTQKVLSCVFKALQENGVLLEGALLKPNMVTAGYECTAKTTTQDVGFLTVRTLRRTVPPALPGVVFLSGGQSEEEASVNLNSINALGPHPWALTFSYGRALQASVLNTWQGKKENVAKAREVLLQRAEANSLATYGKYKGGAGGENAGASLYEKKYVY
Assay: BLI
Conditions: both partners purified
Where no end group is shown, it is not given here. The star is where a group is joined. Biotin = O=C1N[C@H]2[C@H](CS[C@H]2CCCCC(=O)*)N1
# unit: µM | format: bare number

Item: RH4 CTD (1650–1716) (also called RH4 unmodified; source: synthetic peptide; bought: Biomatik, USA) peptide: Biotin-KNSNEPHHIFNIFQKEFSEADNAHSEEKEEYLPVYFDEVEDEVEDEVEDEDENENEVENENEDFNDI | Kd: 3.5

Item: Biotin-ALKGKDNKAMDEEEFWALE (source: synthetic peptide; bought: Biomatik, USA) [MTRAP CTD short C-terminal peptide (printed residues 479–498)] | Kd: 17

Kindly consider the entry below.
Item: EBA181 CTD (1511–1567) (also called EBA181 unmodified; source: synthetic peptide; bought: Biomatik, USA) peptide: Biotin-RKNLDDEKGFYDSNLNDSAFEYNNNKYNKLPYMFDQQINVVNSDLYSEGIYDDTTTF | Kd: 130

Measured values drawn from paper PMC5015959 for this set.
